Reference source: patent US20150197568A1

// reported IC50, TF-1 cell proliferation assay for each item listed
Biological target: Mature human IL-6 (human) (UniProt P05231)
Sequence (P05231 30-212): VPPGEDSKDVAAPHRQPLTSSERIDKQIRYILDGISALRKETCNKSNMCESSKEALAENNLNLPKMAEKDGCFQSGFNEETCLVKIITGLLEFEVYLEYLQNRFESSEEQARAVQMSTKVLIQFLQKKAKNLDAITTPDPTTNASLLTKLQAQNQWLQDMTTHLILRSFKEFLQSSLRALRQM
Assay: cell-based or functional assay
Field format: number, assumed nM, no unit text.

Here are 3 binders together with their reported answers.
Binder	Value Kind	Unit Of Measure	Val
Antibody 21 scFv (scFv, part only; not given: scFv linker, part only) scFv, part: EVQLVQSGGGLIQPGGSLRLSCAASGFTISSNYMIWVRQAPGKGLEWVSDLYYYAGDTYYADSVKGRFTMSRDISKNTVYLQMNSLRAEDTGVYYCARWADDHPSHIDVWGRGTLVTVSSDIVMTQSPSTLSASVGDRVTITCRASQGISSWLAWYQQKPGRAPKVLIYKASTLESGVPSRFSGSGSGTDFTLTISSLQPEDFATYYCQQSWLGGSFGQGTKLEIKR	IC50, TF-1 cell proliferation assay	nM	0.042
CNTO-328 (antibody, INN chains, looked up, V domains shown) VH: EVQLVESGGKLLKPGGSLKLSCAASGFTFSSFAMSWFRQSPEKRLEWVAEISSGGSYTYYPDTVTGRFTISRDNAKNTLYLEMSSLRSEDTAMYYCARGLWGYYALDYWGQGTSVTVSS VL: QIVLIQSPAIMSASPGEKVTMTCSASSSVSYMYWYQQKPGSSPRLLIYDTSNLASGVPVRFSGSGSGTSYSLTISRMEAEDAATYYCQQWSGYPYTFGGGTKLEIK	IC50, TF-1 cell proliferation assay	nM	0.074
Antibody 8 scFv (scFv, part only; not given: scFv linker, part only) scFv, part: EVQLVQSGGGLIQPGGSLRLSCAASGFTISSNYMIWVRQAPGKGLEWVSDLYYYAGDTYYADSVKGRFTMSRDISKNTVYLQMNSLRAEDTGVYYCARWADDHPRYIDHWGRGTLVTVSSDIVMTQSPSTLSASVGDRVTITCRASQGISSWLAWYQQKPGRAPKVLIYKASTLESGVPSRFSGSGSGTDFTLTISSLQPEDFATYYCQQSWLGGSFGQGTKLEIKR	IC50, TF-1 cell proliferation assay	nM	0.419

Please find the next binder below.
Query: Recall and state the measured IC50, TF-1 cell proliferation assay for Antibody 22 scFv (scFv, part only; not given: scFv linker, part only) scFv, part: EVQLVQSGGGLIQPGGSLRLSCAASGFTISSNYMIWVRQAPGKGLEWVSDLYYYAGDTYYADSVKGRFTMSRDISKNTVYLQMNSLRAEDTGVYYCARWADDHNNTYIDVWGRGTLVTVSSDIVMTQSPSTLSASVGDRVTITCRASQGISSWLAWYQQKPGRAPKVLIYKASTLESGVPSRFSGSGSGTDFTLTISSLQPEDFATYYCAAHYAAPWTFGQGTKLEIKR .
Result: 0.041
